Ratio IC50 listing for selected compounds.
Experiment: Selectivity index, ratio of IC50 for recombinant human MAO-A to IC50 for recombinant human MAO-B
readout.type: Ratio IC50

C#CCN(C)[C@H](C)Cc1ccc(OCCNc2c3c(nc4ccccc24)CCCC3)cc1
7
C#CCN(C)[C@H](C)Cc1ccc(OCCCNc2c3c(nc4cc(Cl)ccc24)CCCC3)cc1
0.8
C#CCN(C)[C@H](C)Cc1ccc(OCCCCCNc2c3c(nc4cc(Cl)ccc24)CCCC3)cc1
0.5
C#CCN(C)[C@H](C)Cc1ccc(OCCCCCCNc2c3c(nc4ccccc24)CCCC3)cc1
1.9
C#CCN(C)[C@H](C)Cc1ccc(OCCCNc2c3c(nc4ccccc24)CCCC3)cc1
9.7
C#CCN(C)[C@H](C)Cc1ccc(OCCCCCCCCNc2c3c(nc4ccccc24)CCCC3)cc1
3.5
C#CCN(C)[C@H](C)Cc1ccc(OCCCCCCCCNc2c3c(nc4cc(Cl)ccc24)CCCC3)cc1
1.5
C#CCN(C)[C@H](C)Cc1ccc(OCCCCCCCCCCNc2c3c(nc4ccccc24)CCCC3)cc1
0.9
C#CCN(C)[C@H](C)Cc1ccc(OCCCCCNc2c3c(nc4ccccc24)CCCC3)cc1
0.5

###

Target: Acetylcholinesterase (Electrophorus electricus)
Sequence (O42275 whole entry): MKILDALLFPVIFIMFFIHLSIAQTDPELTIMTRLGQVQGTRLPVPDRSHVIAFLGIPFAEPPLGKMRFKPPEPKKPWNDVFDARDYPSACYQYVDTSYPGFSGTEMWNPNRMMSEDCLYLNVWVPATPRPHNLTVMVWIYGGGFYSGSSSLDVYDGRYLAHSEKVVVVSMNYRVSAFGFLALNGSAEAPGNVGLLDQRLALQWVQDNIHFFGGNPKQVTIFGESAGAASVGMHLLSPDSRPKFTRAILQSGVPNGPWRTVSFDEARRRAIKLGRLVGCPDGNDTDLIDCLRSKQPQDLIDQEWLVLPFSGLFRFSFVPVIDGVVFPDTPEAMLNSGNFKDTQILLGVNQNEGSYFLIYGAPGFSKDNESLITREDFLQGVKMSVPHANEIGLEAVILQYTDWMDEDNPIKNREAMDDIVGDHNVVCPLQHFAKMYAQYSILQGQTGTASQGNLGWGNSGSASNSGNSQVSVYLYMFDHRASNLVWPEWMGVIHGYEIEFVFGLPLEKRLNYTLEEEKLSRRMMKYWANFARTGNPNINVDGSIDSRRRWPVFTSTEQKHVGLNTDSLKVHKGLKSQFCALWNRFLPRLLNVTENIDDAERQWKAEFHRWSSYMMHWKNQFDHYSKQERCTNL
readout.type: IC50 (nM)

C#CCN(C)[C@H](C)Cc1ccc(OCCCCCCCCCNc2c3c(nc4ccccc24)CCCC3)cc1
22.6
C#CCN(C)[C@H](C)Cc1ccc(OCCCCCCCCNc2c3c(nc4cc(Cl)ccc24)CCCC3)cc1
55.4
C#CCN(C)[C@H](C)Cc1ccc(OCCCCCCNc2c3c(nc4ccccc24)CCCC3)cc1
138
C#CCN(C)[C@H](C)Cc1ccc(OCCCCCCCCCCNc2c3c(nc4ccccc24)CCCC3)cc1
23.2

###

pIC50: −log10 of the molar value.
These molecules were tested on Cholinesterase (Equus caballus); pIC50 is the recorded read-out.
Sequence (P81908 whole entry): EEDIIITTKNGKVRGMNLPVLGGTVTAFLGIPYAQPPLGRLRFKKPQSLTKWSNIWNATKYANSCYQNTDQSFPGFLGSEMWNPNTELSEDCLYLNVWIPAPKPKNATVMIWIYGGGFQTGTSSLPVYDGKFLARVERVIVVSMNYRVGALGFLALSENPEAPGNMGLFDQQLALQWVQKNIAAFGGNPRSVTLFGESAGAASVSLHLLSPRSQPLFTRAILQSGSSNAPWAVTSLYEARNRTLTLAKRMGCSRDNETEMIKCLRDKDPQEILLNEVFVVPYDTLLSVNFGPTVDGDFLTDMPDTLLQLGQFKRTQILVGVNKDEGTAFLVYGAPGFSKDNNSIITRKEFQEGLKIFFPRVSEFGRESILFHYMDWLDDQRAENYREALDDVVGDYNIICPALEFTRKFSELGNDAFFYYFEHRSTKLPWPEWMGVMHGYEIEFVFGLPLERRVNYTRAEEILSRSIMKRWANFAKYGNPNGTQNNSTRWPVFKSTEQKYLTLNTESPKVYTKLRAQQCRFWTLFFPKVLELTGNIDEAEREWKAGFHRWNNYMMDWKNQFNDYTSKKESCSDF
readout.type: pIC50

C#CCN(C)[C@H](C)Cc1ccc(OCCCCCCCCCNc2c3c(nc4ccccc24)CCCC3)cc1
8.03
C#CCN(CCCCCCNc1c2c(nc3ccccc13)CCCC2)[C@H](C)Cc1ccc(OC)cc1
7.54
C#CCN(C)[C@H](C)Cc1ccc(OCCCCCCCCNc2c3c(nc4ccccc24)CCCC3)cc1
7.45
C#CCN(C)[C@H](C)Cc1ccc(OCCCNc2c3c(nc4cc(Cl)ccc24)CCCC3)cc1
7.18
